Recorded endpoint: Ki (nM)
State just the number; it will be interpreted in nM.

Identify the measured Ki of CC#Cc1nc2c3cnn(CCN4CCN(c5ccc(OCCOC)cc5F)CC4)c3nc(N)n2n1 for UniProt:P29274.
Sequence (P29274 whole entry): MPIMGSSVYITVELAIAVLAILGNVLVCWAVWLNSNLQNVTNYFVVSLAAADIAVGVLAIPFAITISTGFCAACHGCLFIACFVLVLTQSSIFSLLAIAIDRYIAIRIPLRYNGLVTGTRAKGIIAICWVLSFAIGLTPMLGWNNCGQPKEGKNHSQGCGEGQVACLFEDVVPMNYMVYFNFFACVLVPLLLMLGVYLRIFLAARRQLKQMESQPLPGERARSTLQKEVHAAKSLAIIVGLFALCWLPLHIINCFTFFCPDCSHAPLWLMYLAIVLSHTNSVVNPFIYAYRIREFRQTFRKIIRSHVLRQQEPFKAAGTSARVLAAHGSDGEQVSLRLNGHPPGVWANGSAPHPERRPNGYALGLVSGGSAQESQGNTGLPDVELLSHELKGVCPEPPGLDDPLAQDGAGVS
2.3
